EXPERIMENTAL_TARGET: Nicotinamide N-methyltransferase (Homo sapiens)
ASSAY_REMARKS: Confirmatory Screen for Target Class Profiling of Small Molecule Inhibitors of Methyltransferases (AID 1745852)
MEASUREMENT_SETUP: MTase-Glo luminescence, SAH detection, recombinant enzyme; measured here: NNMT max response; stronger effect = lower value
Rule: measured activity below -20% gets 1; anything equal to or greater than -20% gets 0.

Solved entries (count: 4):
| COMPOUND | GROUP_LABEL |
| --- | --- |
| COc1ccc(CCN2C(=O)c3cc4occc4n3CC2(C)C(=O)NC2CCCCC2)cc1OC (stereo not given) | 1 |
| COc1ccc(N2C(=O)c3ccc(-c4ccco4)n3CC2(C)C(=O)NCc2ccccc2)cc1OC (stereo not given) | 0 |
| COc1cccc(CN2CCCC3(CNc4ccccc4[S+](=O)([O-])N3)C2)c1 (stereo not given) | 0 |
| CC(C)CCn1c(=O)c2ccccc2n2c(CCC(=O)N3CCN(c4ccc(F)cc4)CC3)nnc12 | 1 |

Moving on to the next compound.
Please check: activity for COC(=O)c1ccc(C)c2c1C1C=CCC1[C@@H](c1ccc(C(=O)O)cc1)N2 (stereo not given in full) , strictly under -20% or not?
0

----------
EXPERIMENTAL_TARGET: Rap guanine nucleotide exchange factor 3 (Homo sapiens)
ASSAY_REMARKS: Confirmatory qHTS for antagonist of cAMP-regulated guanine nucleotide exchange factor 3 (EPAC1) (AID 1645880); further: nearly all actives have a fitted effect of over 55% in size; further: potency means the concentration at half of the fitted maximal effect
MEASUREMENT_SETUP: EPAC1 Rap1B-BODIPY-GDP exchange, fluorescence
Results filed as inconclusive are left out. The source made the active and inactive calls. Calls come from the whole dose curve; as a rule, active = well fitted inhibition curve with a large enough effect; inconclusive = small, poorly fitted or top-dose-only effect; inactive = no such curve, though single readings can be large or run the other way.
MEASURE: Potency

Below, each entry is followed by its recorded Potency result.
| COMPOUND | RESULT |
| --- | --- |
| COc1ccccc1Nc1nc2ccc(C)cc2cc1C#N | inactive |
| COc1ccc2nc3ccccc3[n+]([O-])c2c1 | inactive |
| CCOC(=O)c1c(-c2ccc(-c3ccccc3)cc2)csc1NC(=O)CCC(=O)O | 42.6 µM (active) |
| COc1ccc(S(=O)(=O)Nc2ncccc2C)c2ccccc12 | inactive |
| CC1=CC2=NC(=O)/C(=C/c3coc4ccccc4c3=O)C(=N)N2O1 | inactive |
| Cc1cc(C)nc(SCC(=O)c2ccc(F)c(C)c2)n1 | inactive |
| CCN(CC)c1ccc2c(c1)OC(N)=C(C#N)C2c1cccnc1 (configuration not stated) | inactive |
| O=C(c1ccco1)N1N=C2CCCCCC2C1(O)C(F)(F)F (configuration not stated) | inactive |

Provide Potency values for the following items, in order.
1. Cc1ccc(CC#N)c(-c2c(CC#N)ccc(C)c2C)c1C
2. Cn1c(=O)c(C#N)c(-c2ccc(F)cc2)c2cc(C(=O)c3cc(Cl)cc(Cl)c3O)cnc21

1: inactive; 2: inactive

Lab note: each compound below needs its Potency filled in.
1. COC(=O)c1ccc2nc(-c3ccccc3)c(Cc3cccc(F)c3)n2c1
2. CC(/C=C/c1ccc(N(C)C)cc1)=N\N=C1\NC(=O)CC(C(=O)Nc2ccccc2)S1 (configuration not stated)

inactive
inactive

Hey, can you go through the list below and give me Potency for every item?
1. COc1ccc([C@@H]2[C@@H]3C(=O)N(C(C)(C)C)C(=O)[C@@H]3[C@]3(Cc4ccccc4)C(=O)N(c4cccc(Br)c4)C(=O)N23)cc1
2. O=C(/C=N/O)NCCCN1CCOCC1
3. CCOc1ccc(S(=O)(=O)N2CCCCC2)c(C)c1C
4. Cc1ccccc1-c1ccc2ncnc(N3CCOCC3)c2c1
5. O=C(c1ccco1)N1CCC2(CC1)CN(c1cccc(-c3ccccc3)c1)C2

inactive
inactive
inactive
inactive
inactive

For each of the items listed, what is its Potency?
1. CN1CCN(c2ncc3nc(CCc4ccccc4)c(=O)n(Cc4cccs4)c3n2)CC1
2. CCc1ccc(NC(=O)/C(C#N)=C/c2cc3ccc(C)cc3nc2N2CCOCC2)cc1

inactive
inactive

Hey, quick one: what's Potency for each of these?
1. Fc1cc(F)cc(-c2c(-c3ccccc3)ncc3ccc(F)cc23)c1
2. O=c1[nH][nH]c(-c2ccccc2O)c1C(C[N+](=O)[O-])c1ccc(Cl)cc1Cl (configuration not stated)
3. COC(=O)C1=CN(Cc2cccs2)C=C(C(=O)OC)C1c1cccc(Cl)c1

inactive
inactive
inactive
